Measured binding signal (nm), listed per entry for reference.
assay.target: T1, human galectin-10-His (recombinant human galectin-10 with TEV-cleavable N-terminal His-tag) (human)
T1 construct: SEC-MALLS: dimer in solution; also called Gal10-His; humanGal10-His
T1 chain: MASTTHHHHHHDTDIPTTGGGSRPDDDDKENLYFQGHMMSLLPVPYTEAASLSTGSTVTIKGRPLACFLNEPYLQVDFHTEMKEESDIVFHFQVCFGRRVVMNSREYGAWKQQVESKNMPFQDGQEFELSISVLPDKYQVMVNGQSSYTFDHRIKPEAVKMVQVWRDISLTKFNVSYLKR
assay.remarks: BLI tandem on galectin-10-His; competitor: saturating 2C07 mIgG1 (10 ug/mL)
assay.endpoint: binding signal (nm)

| binder | assay.endpoint | test.value |
| --- | --- | --- |
| 2F09 mouse IgG1 (antibody, V domains shown, VH on mouse IgG1 heavy chain constant domains (CH1-CH2-CH3), VL on mouse lambda light chain constant domain; also called 2F09 mIgG1) VH: QVQVQESGPGLVKPSQTLSLTCTVSGGSITTNYFYWSWIRQSPGKGLEWIGAIAYSGRTYYSPSLKSRTSISRDTSNNQFTLQLSSVTPEDTAVYYCARGPKGLASYYDYWGQGTQVTVSS VL: SSALTQPSAVSVSLGQTARITCQGGNFGYYYVSWYQQKPGQAPVLVIYRDSGRPSGIPERFSGSSSGDTATLTISGAQAEDEADYYCQSGSSSDNTVFGGGTHLTVL | binding signal (nm) | 0.05 nm |
| 6E10 mouse IgG1 (antibody, V domains shown, also called 6E010; 6E10 mIgG1) VH: QLQLVESGGGLVQPGGSLRLSCAASGFTFSSYWMYWVRQAPGKGLEWVSAINTGGGSTYYADSVKGRFTISRDNAKNTLYLQMNSLKPEDTALYYCARAGSGVAGTGYDYWGQGTQVTVSS VL: QPVLNQPSAVSVSLGQTARITCQGGNFGYYYVSWYQQKPGQAPVLVIYRDSGRPSGIPERFSGSSSGDTATLTISGAQAEDEADYYCQSGSSSDNAVFGGGTHLTVL | binding signal (nm) | 0.06 nm |
| 2C07 mouse IgG1 (antibody, V domains shown, VH on mouse IgG1 heavy chain constant domains (CH1-CH2-CH3), VL on mouse lambda light chain constant domain; also called 2C07 mIgG1) VH: ELQLVESGGGLVQPGGSLRLSCAASGFTFSSYAMSWVRQAPGKGLEWVSNINSGGGSTGYADSVKGRFTISRDNAKNTLYLQMNSLKPEDMAVYYCAKYLRTYYPNAAFGMDYWGKGTLVTVSS VL: QAVLTQPSAVSVSLGQTARITCQGGNFGRYYASWYQQKPGQAPVLVIYRDSERPSGIPERFSGSSSGDTATLTISGAQAEDEADYYCQSGRSSDNAVFGGGTHLTGL | binding signal (nm) | 0.03 nm |

Source listed as patent US20190367619A1.
